Value source: patent US11878013B2

- System: NO production
- Assay Remarks: NO production in LPS-treated Raw 264.7 macrophages (Griess reagent)
- Type: cell-based, mouse
- Protocol Conditions: 1 ug/ml LPS, 24 hours, Raw 264.7 cells; test concentration not given
Endpoint Name: NO production (% of control)

Compound	NO production (% of control)
[O-][S+](c1ccc(C(F)(F)F)cc1)c1nccc2ccccc12 (stereo not drawn)	25 % of control

Prompt line: Suppose we examine the compound O=S(=O)(c1ccc(F)cc1)c1nccc2ccccc12 [Comparative Example 2, reference compound] ; what NO production (% of control) value has been reported?
Response line: 65 % of control

Prompt line: Then this compound: [O-][S+](c1ccc(Cl)cc1)c1nccc2ccccc12 (stereo not drawn)
Response line: 40 % of control

Prompt line: Then this compound: [O-][S+](c1ccc(F)cc1)c1nccc2ccccc12 (stereo not drawn)
Response line: 40 % of control

Prompt line: Then this compound: [O-][S+](c1ccc(F)cc1F)c1nccc2ccccc12 (stereo not drawn)
Response line: 30 % of control

Prompt line: Then this compound: [O-][S+](c1ccc(F)cc1)c1ccnc2ccccc12 (stereo not drawn)
Response line: 26 % of control
